Entries and their measured PBM E-score follow.
- Study target: Cst6 (UniProt P40535)
- Sequence (P40535 whole entry): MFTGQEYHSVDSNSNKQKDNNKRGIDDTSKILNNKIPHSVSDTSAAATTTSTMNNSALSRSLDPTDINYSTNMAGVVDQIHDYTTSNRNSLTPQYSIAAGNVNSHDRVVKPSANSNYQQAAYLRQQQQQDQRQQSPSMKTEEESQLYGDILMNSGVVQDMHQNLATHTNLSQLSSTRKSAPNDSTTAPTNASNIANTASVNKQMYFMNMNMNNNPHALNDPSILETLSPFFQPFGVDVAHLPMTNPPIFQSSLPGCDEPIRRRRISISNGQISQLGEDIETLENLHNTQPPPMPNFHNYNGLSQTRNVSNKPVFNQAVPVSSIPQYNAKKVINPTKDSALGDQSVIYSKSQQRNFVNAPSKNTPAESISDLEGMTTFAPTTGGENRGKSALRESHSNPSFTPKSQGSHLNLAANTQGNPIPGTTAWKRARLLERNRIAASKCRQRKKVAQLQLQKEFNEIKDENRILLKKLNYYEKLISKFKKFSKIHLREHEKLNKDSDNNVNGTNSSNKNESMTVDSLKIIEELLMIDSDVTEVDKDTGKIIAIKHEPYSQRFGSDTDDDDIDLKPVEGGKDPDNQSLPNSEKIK
- Experiment notes: PBM E-score (8-mer binding enrichment) (E-score (-0.5 to 0.5)); higher = stronger / more preferred TF binding
- Assay context: protein concentration: 200 nM; construct: GST-DNA-binding domain
Whole data set: some 33,000 sequences, median “E-score (-0.5 to 0.5)” near -0.016, cut for the highest 2% near 0.31. The entries come from a sample that favours the highest values as a whole.

Below: 3 sequences and their reported PBM E-score.
Sequence content	PBM E-score
GCGATGAC	0.413
ACGATGAC	0.387
TCGCGCGA	0.169

Now let's try a different one.
PBM E-score of CCGATGAC on Cst6 (UniProt P40535)?
0.336

---

- Study target: Cst6 (UniProt P40535)
- Experiment notes: PBM E-score (8-mer binding enrichment) (E-score (-0.5 to 0.5)); higher = stronger / more preferred TF binding
- Assay context: protein concentration: 200 nM; construct: GST-DNA-binding domain
In all, about 33,000 sequences were measured (“E-score (-0.5 to 0.5)”: median about -0.016, highest 2% from about 0.31 on). This excerpt belongs to a sample that is enriched for the highest values.
Parameter measured: PBM E-score
# answer = number (no unit)

Sequence content	Parameter measured	Recorded value
CCTAGCGA	PBM E-score	-0.296
ACAGGGGA	PBM E-score	-0.218
CCATTCTA	PBM E-score	-0.0992

Name the reported PBM E-score value associated with the sequence CTTATGAC
0.368

Now consider CCGTCAGC .
0.0302

Then what about the sequence AAAATAAT ?
0.302

// query: CGATACTA
0.1

Let us now turn to CTGTCACA
0.0581

---

- Study target: Cst6 (UniProt P40535)
- Experiment notes: PBM E-score (8-mer binding enrichment) (E-score (-0.5 to 0.5)); higher = stronger / more preferred TF binding
- Assay context: protein concentration: 200 nM; construct: GST-DNA-binding domain
Over roughly 33,000 sequences, “E-score (-0.5 to 0.5)” has its median near -0.016; the highest 2% begin near 0.31. The list comes from a sample in which the highest values are over-represented; it also holds close analogues and randomly drawn sequences.
Each entry gets n if its PBM E-score stays under 0.007, and y if its PBM E-score is 0.007 or above.

Sequence content	Cat
TAACTGTA	y

I'd appreciate it if you could say whether AGCCAGTG has PBM E-score at least equal to 0.007.
n

And what about the sequence ACGGCGAG ?
y

Check AAGGCGTA too.
y

Also ACGGCGCC ?
y

Next record, please: ATCATACC
y

Similarly, GGAGACGA ?
n

Would you kindly repeat that for CCTTCGAG ?
n

Likewise for CCGGCGCC ?
y

---

- Study target: Cst6 (UniProt P40535)
- Experiment notes: PBM E-score (8-mer binding enrichment) (E-score (-0.5 to 0.5)); higher = stronger / more preferred TF binding
- Assay context: protein concentration: 200 nM; construct: GST-DNA-binding domain
Over roughly 33,000 sequences, “E-score (-0.5 to 0.5)” has its median near -0.016; the highest 2% begin near 0.31. Many of the other results were omitted from the sample, so the highest values are more common in it than they were.
Parameter measured: PBM E-score

Recorded PBM E-score, per entry:
Sequence content	PBM E-score
TCACGTGA	0.1
TATAATCA	0.308
CGTAATCC	0.3
GCACGTTA	0.0802

So what does the record say about PBM E-score for ACCTTTTC ?
-0.133

What would you report for AGTAATCA ?
0.116

Param item: GATAATCA
0.131

Another: CCACGTCA
0.472

Repeat with ACACGTCG
-0.0793

---

- Study target: Cst6 (UniProt P40535)
- Experiment notes: PBM E-score (8-mer binding enrichment) (E-score (-0.5 to 0.5)); higher = stronger / more preferred TF binding
- Assay context: protein concentration: 200 nM; construct: GST-DNA-binding domain
In all, about 33,000 sequences were measured (“E-score (-0.5 to 0.5)”: median about -0.016, highest 2% from about 0.31 on). The full list was thinned out, with the highest values kept by preference.
Parameter measured: PBM E-score
Field format: numeric only.

Sequence content	Recorded value
CCTCATCA	0.161

Which PBM E-score reading was recorded for the sequence GCACTGTA ?
-0.00858

Try this sequence next: CCCACGGG
-0.214

Another sequence to look at: CTAAAAAA
0.273

Please give the result for GCTTAGAC too.
-0.195

Queued: AATTGCGA
-0.111

Record: AACCACCA
0.00505

Record: CAAGGATC
-0.012

Please answer likewise for GGAGGCCA
-0.314

Item: AATCATCG
0.039

Now consider ATTAAATA .
0.267

Cool, now ACTCATCA
0.00088

Okay, and AGAATGAG ?
-0.0205

---

- Study target: Cst6 (UniProt P40535)
- Experiment notes: PBM E-score (8-mer binding enrichment) (E-score (-0.5 to 0.5)); higher = stronger / more preferred TF binding
- Assay context: protein concentration: 200 nM; construct: GST-DNA-binding domain
The full ranking holds about 33,000 sequences; the median of “E-score (-0.5 to 0.5)” is about -0.016, and the highest 2% start at about 0.31. This excerpt belongs to a sample that is enriched for the highest values.
# key: entry, value: PBM E-score
A bare number is all that is needed in reply.

Would you please look over these solved cases?
Sequence content	PBM E-score
GGCGTAAC	-0.0656
CTCGAAAC	0.0781
GAGTCCGA	-0.0585
GATAATTA	0.322
ACAATTAT	0.289
CATCAAGG	-0.0962
CAATTACC	0.138
ACTCCGCG	-0.0486
AATTACGT	0.462
ATTCAGTA	0.164

For the sequence GATTACAC , what PBM E-score is on record?
0.171

Try ATAATGAT next.
0.334

Same thing, different sequence: AATTACGA
0.286

---

- Study target: Cst6 (UniProt P40535)
- Experiment notes: PBM E-score (8-mer binding enrichment) (E-score (-0.5 to 0.5)); higher = stronger / more preferred TF binding
- Assay context: protein concentration: 200 nM; construct: GST-DNA-binding domain
Over roughly 33,000 sequences, “E-score (-0.5 to 0.5)” has its median near -0.016; the highest 2% begin near 0.31. Shown is part of a subset that was picked to be rich in the highest values.
The entries below come with measured PBM E-score values attached.
// return a plain number; no unit text

Sequence content	Parameter measured	Recorded value
CTACATCA	PBM E-score	0.302
ACATCCGT	PBM E-score	0.0894
GGGGTGAC	PBM E-score	0.284
GTGCATCA	PBM E-score	0.0738
GACGGCAC	PBM E-score	0.23

Read the next record carefully.
# input sequence: GGGTACCC ; wanted: its PBM E-score
-0.239

---

- Study target: Cst6 (UniProt P40535)
- Experiment notes: PBM E-score (8-mer binding enrichment) (E-score (-0.5 to 0.5)); higher = stronger / more preferred TF binding
- Assay context: protein concentration: 200 nM; construct: GST-DNA-binding domain
The full ranking holds about 33,000 sequences; the median of “E-score (-0.5 to 0.5)” is about -0.016, and the highest 2% start at about 0.31. The entries come from a sample that favours the highest values as a whole.
Quick rule for you: PBM E-score at 0.3 or higher means satisfied, lower means not satisfied.

Worked examples, 5 sequences total:
Sequence content	Study target	Cat
AGCGTCAG	Cst6 (UniProt P40535)	not satisfied
CCCGTCAA	Cst6 (UniProt P40535)	not satisfied
GTTCGTCA	Cst6 (UniProt P40535)	not satisfied
GACGTCCC	Cst6 (UniProt P40535)	not satisfied
AGGGACAT	Cst6 (UniProt P40535)	not satisfied

// inclusive: PBM E-score at least 0.3? input: AACGTCAT
satisfied

Please give the result for CGCGTCAA too.
not satisfied

For AGAGTCAT then?
not satisfied

---

- Study target: Cst6 (UniProt P40535)
- Experiment notes: PBM E-score (8-mer binding enrichment) (E-score (-0.5 to 0.5)); higher = stronger / more preferred TF binding
- Assay context: protein concentration: 200 nM; construct: GST-DNA-binding domain
The full ranking holds about 33,000 sequences; the median of “E-score (-0.5 to 0.5)” is about -0.016, and the highest 2% start at about 0.31. This is one part of a sample in which the highest values are shown more often than they occur.
Parameter measured: PBM E-score

The examples below pair each entry with its known result.
Sequence content	Recorded value
ATCTTTAC	0.162
GGGCCGTA	0.116
ATTACGGC	0.266
CTAGCTAG	-0.074
CATCTGAA	0.037

Checklist item: PBM E-score tested on Cst6 (UniProt P40535), entry ACGCCGCG , value?
0.302

Then this sequence: ACGCCGAC
0.0423

Then ACGCCGTA ?
0.349

Please give the result for AGGTGACG too.
0.452

Here is the next sequence: AACTGTGT
0.0284

Thanks! And ATGTGACC ?
0.0452

Here is the next sequence: TGCCTAAA
0.0602

Request: ACGAAACT
0.0946

What about AAATATGA ?
0.239

What do you get for CGCCCACC ?
-0.0447

Proceed to CAATATTG
0.306

Next: CCGCCGTC
0.206

// query: CTAAGACA
0.0903
